compounds and their reported KIDNEY_R
organism: Rattus norvegicus; assay: Open TG-GATES - Regimen: Single; type: toxicity, organism-based, Sprague-Dawley; parameters: regimen Single, gender Male, age 6 weeks; details: in vivo, po, 0 mg/kg, 9 h, tissue Kidney, route gavage, dose level Control
Write the answer as a number in g, unit excluded.

Below are worked cases with known answers.
* OCCN1CCN(CCCN2c3ccccc3Sc3ccc(C(F)(F)F)cc32)CC1 | 0.9
* C[C@H]1C(=O)O[C@@H]2CCN3CC=C(COC(=O)[C@](C)(O)[C@]1(C)O)[C@H]23 | 1
* Cc1ccc2cc3c(ccc4ccccc43)c3c2c1CC3 | 1
* Cc1cccc(C)c1OCC(C)N (stereo not given) | 0.9

Please look at the following compound next.
The value of KIDNEY_R measured for the compound C[C@H]1O[C@H](O[C@H]2[C@H](O)[C@@H](O)[C@@H](O[C@H]3[C@H](O)[C@@H](O)C(O)O[C@@H]3CO)O[C@@H]2CO)[C@H](O)[C@@H](O)[C@@H]1N[C@H]1C=C(CO)[C@@H](O)[C@H](O)[C@H]1O (stereo not given in full) turned out to be 0.9

###

molecules and their reported PL
species on record: Rattus norvegicus; assay: Open TG-GATES - Regimen: Daily Repeat; type: toxicity, organism-based, Sprague-Dawley; parameters: regimen Daily Repeat, gender Male, age 6 weeks; conditions: in vivo, po, 0 mg/kg, […], tissue Plasma, route gavage, dose level Control, time 28 day
Please reply with the bare figure in mg/dL and do not write the unit itself.

- C[C@H]1O[C@H](O[C@H]2[C@H](O)[C@@H](O)[C@@H](O[C@H]3[C@H](O)[C@@H](O)C(O)O[C@@H]3CO)O[C@@H]2CO)[C@H](O)[C@@H](O)[C@@H]1N[C@H]1C=C(CO)[C@@H](O)[C@H](O)[C@H]1O (stereo partly specified): 146.6
- C[C@H]1C(=O)O[C@@H]2CCN3CC=C(COC(=O)[C@](C)(O)[C@]1(C)O)[C@H]23: 152.6
- OCCN1CCN(CCCN2c3ccccc3Sc3ccc(C(F)(F)F)cc32)CC1: 171.6
- Cc1cccc(C)c1OCC(C)N (stereo unspecified): 135
- CCOC(=O)C(C)(C)Oc1ccc(Cl)cc1 [CLOFIBRATE]: 145.6

# evaluate next
// O=C1CN(/N=C/c2ccc([N+](=O)[O-])o2)C(=O)N1 : PL value = 162.4

###

species: Rattus norvegicus; assay: Open TG-GATES - Regimen: Single; assay type: toxicity, organism-based, Sprague-Dawley; design: regimen Single, gender Male, age 6 weeks; conditions: in vivo, po, 0 mg/kg, 24 h, tissue Blood, route gavage, dose level Control
Measured MCV by item
The reply should contain only the number, in fL.

Use the examples below as a reference point.
- O=[N+]([O-])c1ccc(O)c([N+](=O)[O-])c1: 62.5
- Cn1cc[nH]c1=S: 62.5

MCV reported for this molecule C[C@H]1O[C@H](O[C@H]2[C@H](O)[C@@H](O)[C@@H](O[C@H]3[C@H](O)[C@@H](O)C(O)O[C@@H]3CO)O[C@@H]2CO)[C@H](O)[C@@H](O)[C@@H]1N[C@H]1C=C(CO)[C@@H](O)[C@H](O)[C@H]1O (stereo partly drawn) : 63

###

Below is a list of entries, each paired with its recorded MCHC value.
species on record: Rattus norvegicus; experiment: Open TG-GATES - Regimen: Daily Repeat; type: toxicity, organism-based, Sprague-Dawley; design: regimen Daily Repeat, gender Male, age 6 weeks; settings: in vivo, po, 0 mg/kg, […], tissue Blood, route gavage, dose level Control, time 28 day
Dear colleague, please return just the value in %, with no unit written.

• O=[N+]([O-])c1ccc(O)c([N+](=O)[O-])c1 = 34

Briefly, MCHC measured for C[C@H]1C(=O)O[C@@H]2CCN3CC=C(COC(=O)[C@](C)(O)[C@]1(C)O)[C@H]23 : 36.1

For record Cc1cccc(C)c1OCC(C)N (stereo not drawn) the listed MCHC is 34.1

What the record says about O=C1CN(/N=C/c2ccc([N+](=O)[O-])o2)C(=O)N1 : MCHC is 35

###

Attribute: Ht
species: Rattus norvegicus; assay: Open TG-GATES - Regimen: Single; assay type: toxicity, organism-based, Sprague-Dawley; design: regimen Single, gender Male, age 6 weeks; details: in vivo, po, 0 mg/kg, 3 h, tissue Blood, route gavage, dose level Control
Kindly answer with a numeric value in %, unit omitted.

Take a look at these entries with their results.
- Cc1cccc(C)c1OCC(C)N (stereo not drawn): 39.4
- Cc1ccc2cc3c(ccc4ccccc43)c3c2c1CC3: 39.3

The reported Ht of the molecule O=[N+]([O-])c1ccc(O)c([N+](=O)[O-])c1 was 39.5

###

AST by entry:
organism: Rattus norvegicus; assay: Open TG-GATES - Regimen: Single; assay type: toxicity, organism-based, Sprague-Dawley; parameters: regimen Single, gender Male, age 6 weeks; settings: in vivo, po, 0 mg/kg, 6 h, tissue Plasma, route gavage, dose level Control
Respond with the figure and its unit, in that order.

Some molecules with recorded AST:
- OCCN1CCN(CCCN2c3ccccc3Sc3ccc(C(F)(F)F)cc32)CC1: 67.4 IU/L
- Cn1cc[nH]c1=S: 77.4 IU/L

Shifting focus to the molecule that follows.
Lab book: AST of C=C(C)[C@H]1Cc2c(ccc3c2O[C@@H]2COc4cc(OC)c(OC)cc4[C@@H]2C3=O)O1 noted as 67 IU/L

###

Item-by-item account of LIVER
organism: Rattus norvegicus; test: Open TG-GATES - Regimen: Single; assay type: toxicity, organism-based, Sprague-Dawley; set-up: regimen Single, gender Male, age 6 weeks; details: in vivo, po, 0 mg/kg, 3 h, tissue Liver, route gavage, dose level Control
# number only, unit g dropped from output

Kindly note the recorded LIVER for OCCN1CCN(CCCN2c3ccccc3Sc3ccc(C(F)(F)F)cc32)CC1 , which is 9.6

###

species on record: Rattus norvegicus; experiment: Open TG-GATES - Regimen: Single; type: toxicity, organism-based, Sprague-Dawley; set-up: regimen Single, gender Male, age 6 weeks; conditions: in vivo, po, 0 mg/kg, 9 h, tissue Plasma, route gavage, dose level Control
outcome_measure: CRE
Record the result as a number with its unit.

Worked cases, answers included:
- Cc1cccc(C)c1OCC(C)N (stereo not drawn): 0.2 mg/dL
- C[C@H]1C(=O)O[C@@H]2CCN3CC=C(COC(=O)[C@](C)(O)[C@]1(C)O)[C@H]23: 0.2 mg/dL

Would you kindly look at the next entry?
The compound identified as C[C@H]1O[C@H](O[C@H]2[C@H](O)[C@@H](O)[C@@H](O[C@H]3[C@H](O)[C@@H](O)C(O)O[C@@H]3CO)O[C@@H]2CO)[C@H](O)[C@@H](O)[C@@H]1N[C@H]1C=C(CO)[C@@H](O)[C@H](O)[C@H]1O (stereo partly drawn) registered its CRE at 0.2 mg/dL

###

species on record: Rattus norvegicus; test: Open TG-GATES - Regimen: Daily Repeat; type: toxicity, organism-based, Sprague-Dawley; parameters: regimen Daily Repeat, gender Male, age 6 weeks; conditions: in vivo, po, 0 mg/kg, 72 h, route gavage, dose level Control, time 3 day
Measured TERMINAL_BW by item
Number in g, nothing else.

• C[C@H]1C(=O)O[C@@H]2CCN3CC=C(COC(=O)[C@](C)(O)[C@]1(C)O)[C@H]23 [MONOCROTALINE] = 230.9
• O=[N+]([O-])c1ccc(O)c([N+](=O)[O-])c1 [2,4-DINITROPHENOL] = 246.4

Kindly note the recorded TERMINAL_BW for CCOC(=O)C(C)(C)Oc1ccc(Cl)cc1 [CLOFIBRATE] , which is 239.8

###

Catalogue of AST readings, one per entry.
species: Rattus norvegicus; assay: Open TG-GATES - Regimen: Single; assay type: toxicity, organism-based, Sprague-Dawley; set-up: regimen Single, gender Male, age 6 weeks; conditions: in vivo, po, 0 mg/kg, 24 h, tissue Plasma, route gavage, dose level Control
The answer is to be given in IU/L; state only the numeric part.

Solved entries:
- OCCN1CCN(CCCN2c3ccccc3Sc3ccc(C(F)(F)F)cc32)CC1: 69.6
- C[C@H]1O[C@H](O[C@H]2[C@H](O)[C@@H](O)[C@@H](O[C@H]3[C@H](O)[C@@H](O)C(O)O[C@@H]3CO)O[C@@H]2CO)[C@H](O)[C@@H](O)[C@@H]1N[C@H]1C=C(CO)[C@@H](O)[C@H](O)[C@H]1O (some centres undefined): 71.6
- Cn1cc[nH]c1=S: 69

Now, please, on to the next compound.
Recorded AST (compound Cc1ccc2cc3c(ccc4ccccc43)c3c2c1CC3 ): 72

###

species: Rattus norvegicus; experiment: Open TG-GATES - Regimen: Single; assay type: toxicity, organism-based, Sprague-Dawley; design: regimen Single, gender Male, age 6 weeks; conditions: in vivo, po, 0 mg/kg, 24 h, tissue Blood, route gavage, dose level Control
outcome_measure: Ret (%)
Please reply with the bare figure in % and do not write the unit itself.

Some solved cases for reference:
* OCCN1CCN(CCCN2c3ccccc3Sc3ccc(C(F)(F)F)cc32)CC1 | 8
* C[C@H]1O[C@H](O[C@H]2[C@H](O)[C@@H](O)[C@@H](O[C@H]3[C@H](O)[C@@H](O)C(O)O[C@@H]3CO)O[C@@H]2CO)[C@H](O)[C@@H](O)[C@@H]1N[C@H]1C=C(CO)[C@@H](O)[C@H](O)[C@H]1O (stereo not given in full) | 7.9
* Cn1cc[nH]c1=S | 8.2

Query Cc1ccc2cc3c(ccc4ccccc43)c3c2c1CC3 yields Ret of 8

Reported Ret for O=[N+]([O-])c1ccc(O)c([N+](=O)[O-])c1 was 8.1

Data origin: ChEMBL document CHEMBL3885861
